- Test system: Spleen
- Experiment notes: Drug uptake in ICR mouse spleen at 370 kBq/100 ul, iv at 60 mins by gamma-counting analysis
- Format: ADME, organism-based
- Experimental setup: in vivo, 1 h
Readout: Drug uptake (% ID/g)

CN(C)c1ccc(-c2nc3ccc(OCCOCCOCC[18F])cc3s2)cn1 :: 1.47
CNc1ccc(-c2nc3cc(OCC[18F])ccc3o2)cn1 :: 1.64
CN(C)c1ccc(-c2nc3cc(OCC[18F])ccc3o2)cn1 :: 1.32
CNc1ccc(-c2nc3cc(OCCOCCOCC[18F])ccc3o2)cn1 :: 1.79

----------
- Tested on: Liver
- Experiment notes: Drug uptake in ICR mouse liver at 370 kBq/100 ul, iv at 2 mins by gamma-counting analysis
- Assay type: ADME, organism-based
- Experimental setup: in vivo
Readout: Drug uptake (% ID/g)

CN(C)c1ccc(-c2nc3cc(OCCOCCOCC[18F])ccc3o2)cn1 :: 13.25

I: CNc1ccc(-c2nc3ccc(OCCOCCOCC[18F])cc3s2)cn1
II: CNc1ccc(-c2nc3cc(OCC[18F])ccc3o2)cn1
Input: // compare measured Drug uptake, left I , right II , return larger Choose, then provide that item's label.
Output: I
(I: 15.22 % ID/g, II: 10.48 % ID/g)

----------
- Test system: Spleen
- Experiment notes: Drug uptake in ICR mouse spleen at 370 kBq/100 ul, iv at 2 mins by gamma-counting analysis
- Type: ADME, organism-based
- Experimental setup: in vivo
Readout: Drug uptake (% ID/g)

CNc1ccc(-c2nc3ccc(OCC[18F])cc3s2)cn1 :: 4.52
CN(C)c1ccc(-c2nc3ccc(OCCOCCOCC[18F])cc3s2)cn1 :: 3.14
CN(C)c1ccc(-c2nc3cc(OCCOCCOCC[18F])ccc3o2)cn1 :: 3
CNc1ccc(-c2nc3cc(OCC[18F])ccc3o2)cn1 :: 3.32

----------
- Test system: Liver
- Experiment notes: Drug uptake in ICR mouse liver at 370 kBq/100 ul, iv at 60 mins by gamma-counting analysis
- Assay type: ADME, organism-based
- Experimental setup: in vivo, 1 h
Readout: Drug uptake (% ID/g)

CNc1ccc(-c2nc3ccc(OCC[18F])cc3s2)cn1 :: 3.06
CNc1ccc(-c2nc3ccc(OCCOCCOCC[18F])cc3s2)cn1 :: 4.12
CN(C)c1ccc(-c2nc3cc(OCCOCCOCC[18F])ccc3o2)cn1 :: 3.46
CNc1ccc(-c2nc3cc(OCCOCCOCC[18F])ccc3o2)cn1 :: 4.21

----------
- Test system: Kidney
- Experiment notes: Drug uptake in ICR mouse kidney at 370 kBq/100 ul, iv at 60 mins by gamma-counting analysis
- Type: ADME, organism-based
- Experimental setup: in vivo, 1 h
Readout: Drug uptake (% ID/g)

CNc1ccc(-c2nc3ccc(OCC[18F])cc3s2)cn1 :: 3.45
CNc1ccc(-c2nc3ccc(OCCOCCOCC[18F])cc3s2)cn1 :: 2.66
CNc1ccc(-c2nc3cc(OCCOCCOCC[18F])ccc3o2)cn1 :: 2.54

----------
- System: Intestine
- Experiment notes: Drug uptake in ICR mouse intestine assessed per organ at 370 kBq/100 ul, iv at 60 mins by gamma-counting analysis
- Type: ADME, organism-based
- Experimental setup: in vivo, 1 h
Readout: Drug uptake (%ID)

CNc1ccc(-c2nc3cc(OCCOCCOCC[18F])ccc3o2)cn1 :: 25.16
CN(C)c1ccc(-c2nc3cc(OCCOCCOCC[18F])ccc3o2)cn1 :: 28.54
CN(C)c1ccc(-c2nc3ccc(OCCOCCOCC[18F])cc3s2)cn1 :: 26.66

P: CNc1ccc(-c2nc3ccc(OCC[18F])cc3s2)cn1
Q: CN(C)c1ccc(-c2nc3cc(OCC[18F])ccc3o2)cn1
Input: Given the listed items, does P or Q have the lesser reported Drug uptake? In your reply, give the label of the chosen option.
Output: P
